Tested on: FXR:RXRa (NR concentration 270 nM, RXRa partner concentration 90 nM)
Procedure details: PBM binding z-score (relative to random genomic background probes); higher = stronger binding; sequences stand for … in GC…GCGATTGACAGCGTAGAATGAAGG
Label rule, in plain words: PBM binding z-score of 2 and up is 1 (yes), under 2 is 0 (no).

The following sequences have reported results that may help.
[[record]]
seq = "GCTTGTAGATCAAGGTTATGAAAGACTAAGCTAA"
assayed_target = "FXR:RXRa (NR concentration 270 nM, RXRa partner concentration 90 nM)"
class = "0 (no)"

[[record]]
seq = "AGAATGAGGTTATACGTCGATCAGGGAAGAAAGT"
assayed_target = "FXR:RXRa (NR concentration 270 nM, RXRa partner concentration 90 nM)"
class = "1 (yes)"

[[record]]
seq = "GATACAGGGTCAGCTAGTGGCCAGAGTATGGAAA"
assayed_target = "FXR:RXRa (NR concentration 270 nM, RXRa partner concentration 90 nM)"
class = "1 (yes)"

[[record]]
seq = "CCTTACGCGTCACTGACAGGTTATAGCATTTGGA"
assayed_target = "FXR:RXRa (NR concentration 270 nM, RXRa partner concentration 90 nM)"
class = "0 (no)"

[[record]]
seq = "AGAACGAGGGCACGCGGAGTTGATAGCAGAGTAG"
assayed_target = "FXR:RXRa (NR concentration 270 nM, RXRa partner concentration 90 nM)"
class = "0 (no)"


Form field: PBM binding z-score at least 2? Entry: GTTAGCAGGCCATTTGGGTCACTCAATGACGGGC
0 (no)

Hello, I need to know if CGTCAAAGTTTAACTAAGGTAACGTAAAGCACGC has measured PBM binding z-score not below 2. Thanks!
0 (no)

Does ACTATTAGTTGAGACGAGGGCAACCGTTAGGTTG have a reported PBM binding z-score of at least 2?
0 (no)

Exam item: decide whether the reported PBM binding z-score for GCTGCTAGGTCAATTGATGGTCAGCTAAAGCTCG is at least 2.
1 (yes)

Tell me whether PBM binding z-score is at least 2 here: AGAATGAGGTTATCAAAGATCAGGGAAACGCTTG
0 (no)

Please tell me: is the sequence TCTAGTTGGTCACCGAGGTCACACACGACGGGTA at or over 2 in terms of PBM binding z-score?
1 (yes)

Has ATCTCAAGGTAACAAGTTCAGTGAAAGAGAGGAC a recorded PBM binding z-score greater than or equal to 2?
0 (no)

Quick check, PBM binding z-score >= 2? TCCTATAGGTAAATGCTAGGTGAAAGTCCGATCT
0 (no)

API: above_or_equal(metric=PBM binding z-score, cutoff=2) for item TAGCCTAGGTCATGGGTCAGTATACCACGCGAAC
1 (yes)

hey, is PBM binding z-score for this one >= 2? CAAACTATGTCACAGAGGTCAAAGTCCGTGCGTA
1 (yes)

Given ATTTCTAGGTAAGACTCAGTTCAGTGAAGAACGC , state whether its PBM binding z-score is at least 2.
0 (no)

PBM binding z-score >= 2 for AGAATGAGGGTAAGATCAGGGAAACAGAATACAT ?
0 (no)

Assess whether reported PBM binding z-score for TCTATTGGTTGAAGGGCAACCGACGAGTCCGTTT sits at 2 or higher.
0 (no)

====

Tested on: PPARg:RXRa IVT, anti-PPARg (NR concentration 270 nM, RXRa partner concentration 90 nM)
Procedure details: PBM binding z-score (relative to random genomic background probes); higher = stronger binding; sequences stand for … in GC…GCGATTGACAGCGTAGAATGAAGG
Label NO if PBM binding z-score falls below 2; label YES in every other case.

[[record]]
seq = "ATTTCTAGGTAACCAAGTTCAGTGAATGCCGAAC"
class = "YES"


Evaluate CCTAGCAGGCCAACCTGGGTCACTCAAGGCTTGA : PBM binding z-score at minimum 2?
NO

Decide: is the reported value of PBM binding z-score for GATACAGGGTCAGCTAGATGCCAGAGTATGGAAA equal to or greater than 2?
YES

Check if PBM binding z-score >= 2 (inclusive). Item: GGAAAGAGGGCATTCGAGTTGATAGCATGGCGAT
NO

Could you verify whether the entry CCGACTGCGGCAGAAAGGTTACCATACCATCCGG shows PBM binding z-score of no less than 2?
NO

Dear colleague, could you confirm whether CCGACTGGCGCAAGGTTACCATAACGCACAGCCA has PBM binding z-score at or above 2?
NO

Entry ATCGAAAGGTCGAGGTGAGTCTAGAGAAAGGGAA : is its PBM binding z-score no less than 2?
YES

====

Test system: PPARg:RXRa DBDmut IVT, anti-RXR (DBD mutation: RXRa K156A/R161A, NR concentration 270 nM, RXRa partner concentration 90 nM)
Procedure details: PBM binding z-score (relative to random genomic background probes); higher = stronger binding; sequences stand for … in GC…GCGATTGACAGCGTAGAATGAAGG
Give TRUE when the value for PBM binding z-score is at least 1. Give FALSE when it is less.

[[record]]
seq = "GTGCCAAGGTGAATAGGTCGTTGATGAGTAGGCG"
class = "TRUE"

[[record]]
seq = "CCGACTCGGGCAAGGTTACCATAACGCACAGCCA"
class = "FALSE"

[[record]]
seq = "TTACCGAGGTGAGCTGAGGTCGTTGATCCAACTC"
class = "TRUE"

[[record]]
seq = "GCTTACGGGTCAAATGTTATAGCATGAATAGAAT"
class = "TRUE"

[[record]]
seq = "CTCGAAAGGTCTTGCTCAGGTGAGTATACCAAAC"
class = "FALSE"


State whether the measured PBM binding z-score reaches 1, counting equality as reaching it, for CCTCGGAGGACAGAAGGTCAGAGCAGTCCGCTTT
FALSE

Dear colleague, could you confirm whether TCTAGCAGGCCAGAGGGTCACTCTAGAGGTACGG has PBM binding z-score at or above 1?
FALSE

Could you verify whether the entry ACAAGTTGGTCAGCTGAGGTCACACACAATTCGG shows PBM binding z-score of no less than 1?
TRUE

Confirm if PBM binding z-score reported for the sequence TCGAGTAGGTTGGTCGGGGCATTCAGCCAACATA is 1 or above.
FALSE

hey, is PBM binding z-score for this one >= 1? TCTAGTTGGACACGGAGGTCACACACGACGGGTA
TRUE

====

System: PPARg DBDmut IVT, anti-PPARg (DBD mutation: PPARg1 K132A/R137A, NR concentration 270 nM)
Procedure details: PBM binding z-score (relative to random genomic background probes); higher = stronger binding; sequences stand for … in GC…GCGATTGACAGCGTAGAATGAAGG
Let's look at some sequences and their measured PBM binding z-score.
Just the number, please, no unit attached.

[[record]]
seq = "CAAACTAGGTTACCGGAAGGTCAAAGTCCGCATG"
measurement_name = "PBM binding z-score"
reading = 1.42

[[record]]
seq = "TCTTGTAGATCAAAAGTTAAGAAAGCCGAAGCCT"
measurement_name = "PBM binding z-score"
reading = 0.787

[[record]]
seq = "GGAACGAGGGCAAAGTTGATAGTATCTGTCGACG"
measurement_name = "PBM binding z-score"
reading = -0.544

[[record]]
seq = "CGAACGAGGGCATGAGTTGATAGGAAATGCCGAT"
measurement_name = "PBM binding z-score"
reading = -0.376

[[record]]
seq = "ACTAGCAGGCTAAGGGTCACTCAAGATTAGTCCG"
measurement_name = "PBM binding z-score"
reading = -0.126

[[record]]
seq = "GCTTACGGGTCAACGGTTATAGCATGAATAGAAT"
measurement_name = "PBM binding z-score"
reading = 0.764

[[record]]
seq = "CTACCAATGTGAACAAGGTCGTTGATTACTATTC"
measurement_name = "PBM binding z-score"
reading = 0.752

[[record]]
seq = "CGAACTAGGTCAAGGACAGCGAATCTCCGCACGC"
measurement_name = "PBM binding z-score"
reading = 2.03

[[record]]
seq = "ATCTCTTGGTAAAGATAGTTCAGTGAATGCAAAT"
measurement_name = "PBM binding z-score"
reading = 1.88

[[record]]
seq = "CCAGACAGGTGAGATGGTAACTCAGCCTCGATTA"
measurement_name = "PBM binding z-score"
reading = -0.721


Return PBM binding z-score (reported value) for this sequence: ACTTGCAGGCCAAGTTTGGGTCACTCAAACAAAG
0.0722

====

Test system: FXR:RXRa (NR concentration 270 nM, RXRa partner concentration 90 nM)
Procedure details: PBM binding z-score (relative to random genomic background probes); higher = stronger binding; sequences stand for … in GC…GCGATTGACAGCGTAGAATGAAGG
The label depends only on PBM binding z-score: 1.0 if it is at least 0.7, 0.0 if it is smaller.

Sample answers from the record:
[[record]]
seq = "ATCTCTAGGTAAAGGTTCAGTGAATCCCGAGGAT"
class = 0.0

[[record]]
seq = "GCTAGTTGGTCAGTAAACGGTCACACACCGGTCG"
class = 0.0

[[record]]
seq = "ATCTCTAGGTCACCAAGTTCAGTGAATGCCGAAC"
class = 1.0

[[record]]
seq = "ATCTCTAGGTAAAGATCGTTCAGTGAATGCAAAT"
class = 0.0

[[record]]
seq = "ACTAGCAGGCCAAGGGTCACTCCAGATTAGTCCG"
class = 1.0

[[record]]
seq = "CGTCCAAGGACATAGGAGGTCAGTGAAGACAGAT"
class = 1.0


hey, is PBM binding z-score for this one >= 0.7? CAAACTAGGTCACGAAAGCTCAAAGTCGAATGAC
1.0

Is PBM binding z-score at least 0.7? Consider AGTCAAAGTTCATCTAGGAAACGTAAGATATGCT
1.0
